All values here come from the nanobody polyreactivity screen of Harvey et al. (2022).

test: yeast display, Sf9 membrane polyspecificity reagent, FACS + sequencing; frameworks hold sequencing errors

input_sequence	polyreactivity (PSR sort gate)
QVQLVESGGGLVQAGGSLRLSCAACGRPFTLYAMGWYRQAPGKERELVASITSGTRTYYADSVKGRFTISRDNAKNTVYLQMNSLKPEDTAVYYCAKEGYRRTLHRLYDYWGEGTQVTVSS	low polyreactivity
QVQLVESGGGLVQAGGSLRLSCAASGSIFPRYVMGWYRQAPGTARELVAAISGSGGSTYYADSVKGRFTISRDNAKNTVYLQMNSLKPEDTAVYYCNKLRRRVNRDIDDYWGQGTQVTVSS	high polyreactivity
QVQLVESGGGLVQAGGSLPLSCAASGLTFYRYAMGWYREAPGKERELVAAISFSGGSTYYADSVKGRFTISRDIAKYTVYIQMNCLKPEDTAVYYCAASYQGRRYQDRYDYWGQGNQVTVSS	high polyreactivity
QVQLVESGGGLVQAGGSLRLSCAASGRIFDRYAMGWYRQAPGKERELVAAISDRGGSTYYADSVKGRFTISRDNAKNTVYLQMNSLKPEDTAVFYCAKGPSGVRTYREYDSWGQGTQVTVSS	low polyreactivity
QVQLVESGGGLVQAGGSLRLSCAASRSTFPFYAMGWYRQAPGKERELVAAITSGGSTYADSVKGRFTISRDNAKNTVYLQMNSLKPEDTAVYYCAASWPRWWRFGYWGQGTQVTVSS	low polyreactivity
QVQHVESRGGLVQAGGSLRLSCAASGLIFALYAMGWYRLAHGKERELVAAIDWSGGSTYYADSVKGRFTISRDNAKNTVYLQMNCLKPEDTAVYYCAADISSSPGNDYWGQGTQVTVSS	high polyreactivity
QVQLVESGGGLVQAGGSLRLSCAASGSIFSYYAMGWYRQAPGKERELVAAITGGGTTNYADSVKGRFTISRDNAKNTDYLQMNSLKPEDTAVYYCAADEPDVFAPGLYYWGQGTQVTLSS	low polyreactivity
QVQLVESGGGLVQAGGSLRLSCAASGSIYYYYAMGWYRQAPGKERELVAAIRRRGGTTYYADSVKGRFTISRDNAKNTVSLQMISLKPEDTAVYYCAARSKSAYWGQGTQVTVSS	high polyreactivity
QVQLVESGGGLVQAGGSLRLSCAASGSIFPYYAMGWNRQAPGKERELVATITSRGGSTYYADSVKGRFTISRDNAKNTVYLQMNSLKPEDTAVYYCAKEYRYYRRRYDYWGQGTQVTVSS	high polyreactivity
QVQLVESGGGLVQAGGSLRLSCAASGSTFSLNAMGWYRQAPGKERELVAAISGSGGSTYYADSVKGRFTISRDNAKHTVYLQMNSLKPEDTAVYYCNKYYYPLRKSFGYWGQGTQVTVSS	high polyreactivity
QVQLVESGGGLVQAGGTLRLSCAASGSTFTDYDMGWYRQAPGQERELVAAITSGGSTNYADSVKGRFTISRDNAKNTVYLQMNSLKPEDTAVYYCAAADADRKYDFWGQGTQVTVSS	low polyreactivity

====

assay: yeast display, Sf9 membrane polyspecificity reagent, FACS + sequencing; frameworks hold sequencing errors

input_sequence	polyreactivity (PSR sort gate)
QVQLVESGGGLVQAGGSLRLSCAASGSTFTFYAMGWYRQAPGKERELVASITQSTGSTHYADSVKGRFTISRDNAKNTVYLQMNSLKPEDTSVYYCNAQKIVYYWVTLFPYYYWGQGTQVTVSS	low polyreactivity
QVQLVESGGGLVQAGGSLRLSCAASGSTFLWNAMGWYRPAPGKERELVAAISYSGGSTYYADSVKGRFTISRDNAKNTVYLQMNSLKPEVTAVYYCAKEWFYDPYPPGYDYWGQGTQVTVSS	low polyreactivity
QVQLVESGGGLVQAGGSLRLSCAASGRTFYNNAMGWYRQAPGKERELVATINNRGGTTYYADSVKGRFTISRDNAKNTVYLQMNSLKPEDSAVYYCAKSAQRYSYRYYYWGQGTQVTVSS	high polyreactivity
QVQLVESGGGLVQAGGSLRLSCAASGSTFGPYAMGWYRQAPGKERELVAAIRSDGGTYYADSVKGRFTISRDNAKNTVYLQMNSLKPEDTAVYYCATRPINSYYDHDSWGQGTQVTVSS	high polyreactivity
QDQHVESGGGLVQAGCSLRLSCAASGSIFKDNAMGWYRPAPCKEWELVADITIGDSTTYEDSVKGRFTISRDNAKNTVYLHMNSLKPEDTAVYYCAADNYIIKYDYWDYDYCGQGTQVTVSS	low polyreactivity
QVQLVESGGCLVQAGGSLRLSCAASGFTFRWYTMGWYRQAPGKERELVAAITGSGCTTYYADSVKGRFTISRDNAKNTVYLQMNSVKPEDTAVYYCAAQYFPSRGWSKGYDYWGHGTQVTVSS	high polyreactivity
QVQLVESGGGLFQAGGSLRLRCAASGFIFGVNAMGWYRQAPGKERELVAAITSTGGRTYYADSVKGRFTISRDNAKNTVYLQMNSLKPVDTAVYFCARYQTGGYGYWGQGTQVTVSS	high polyreactivity
QVQRVESGGGLVQAGGSLRLRCAASGSILYHNTMGWYIQAPGKEREFVASISANGGSTYYADSVKGRFTISRDNAKNTVYLQMNSLKPEDTAVYYCAARVADYPLVGGSSYNRMEYWGQGTQVTVSS	low polyreactivity
QVQLVESGGGLVQAGRSLRLSCAASGSTFKVYAMGWYRQAPGKERELVAAISASDGSTYYPDSVKGRFTISRDNAKKTVYVQMYRLKPEDTAVYYFAAVLYSDKATYDYWGQGTQVTVSS	low polyreactivity
QVQLVESGGGLGQAGGSLRLSCAASGSIFGYNVMGWYRQAPGKERELVAGITSGGSTNYADSVKGRFTISRDNAKNTVSLQMNSLKPEDTAVYYCNAEGVFGDGRSGFYWYDYWGEGTQVTVSS	low polyreactivity
QVQLVESGGGLVQAGGSLRLSCAASGRTFYNAMGWYIQAPGKERELVAAITTGGGTKYADSVKGRFTISRDNAKNTVYLQMHSLQPEDTAVYYCNTDAWYHFYHGAHKFDYWGQGTQVTVSS	low polyreactivity
QVQLQESGGGLVQAGGSLRLSCAASGSISLGDNMGWYRQAPGKEREFVATISVGGITYYVDSVKGRFTISRDIAKNTVYLQMNSLKPEDTAVYYCAALDIYYFRYYYWGQGTQVTVSS	low polyreactivity
QVQLEESGGGVVQAGGSLRLSCAASGRTFYHKAMGWYRQAPGKETQVVATINSGGSTYADSVKGRFTISRDNAKNTVYLQMNSVKPEDTAVYYCAATFWSRSRFYYGYDYWGQGTQVTVSS	high polyreactivity
QVQLVESGGGLVQAGGSLRLSCAASGRTFQVYAMGWYTQAPGKERELVADITGRGGITYYADSVKGRFTISRDNAKNTVYLQMNSLKPEDTAVYYCAAERYNYKTIYRYDYWGQGTQVTVSS	high polyreactivity
QVQLVESGGGLVQAGGSLRLICAASGRTFQYYAMGWYRQARGKERELVAAISWSGGSTYYADSVKGRFTISRDNAKNTVYLQMNSLKAEDNAVYYFAASFRGQIVGYWGQGTQVTVSS	high polyreactivity
QVQLVESGGGIVQAGGSLRLSCAASGSTLTIYAMGWYRQAPGKERELVAAISRSGGRTYYADSVKGRFTISRDNAKNTVYLQMNSLKPEDTAVYYCATQPVRDRPGGSRKKYYYWGLGTQVTVSS	high polyreactivity
QVQHVDSAGGLVQAGGSLRLSCAASGSTFAPNAMGWYRQAPGKERELVAAISFRGVRTYYADSVKGRFTISRDNAKNTVYLQMNCLKPEDTAVYYCNKRVQRRNKPGAYNYEYWGQGTQVTVSS	high polyreactivity
QDQLVESGGGLVQAGGSLRLSCAASGLIFLYAMGWYRQAPGKERELVAAISNGGSTYYADSVKGRFTISRDNAKNTVYLQMNSLKPEDTAVYYCAAKGVRRRYRPDMYYWGQGTQVTVSS	high polyreactivity
QVQLVESGGGLVQAGGSLRLSCAASGIFRSNTMGWYRQAPGKERELVATISRRSGSTYYADSVKGRFTISRDNAKNTVYLQMNSLKPEDTAVYYCAAAAPRRKYDYWGQGTQVTVSS	high polyreactivity
QVQLVESGGGLVQAGGSLRLSCAASGSIFYRITMGWYRQAPGKERELVAAISTNGGSTYYADSVKGRFTISRDNAKNSVYLQMNSLKPEDTAVYYCAADLRRSDYDYWGQGTQVTVSS	high polyreactivity
QVQLVESGGGLVQAGGSLRLSCAASGFTFSWYAMGWYRQAPGKERELVAAISLSGDRTYYADSVKGRFTISRDNANNTVYLQMNSLKPEDTAVYYCVFAFEYWGQGTQVTVSS	low polyreactivity

====

experiment: yeast display, Sf9 membrane polyspecificity reagent, FACS + sequencing; frameworks hold sequencing errors
assay_readout: polyreactivity (PSR sort gate)

input_sequence	observed_measurement
QVQLVESGGGLVQEGGSLRLSCAASGFTFVSNAMGWYRQAPGKERELVAAITYSGTRTYYADSVKGRFTISRDNAKTTVYLQMNSLKPEDTAVYYCAARRGYASAYYYWGQGTQVTVSS	high polyreactivity
QVQLVESGGGLVQAGGSLRLICAASGRIFDFYAMGWYRQAPGKDRELVAAITTGDSTYYADSVKGRFTISRDNAKNTVYLQMNSLKPEDTAVYDCAAVGHGGWDGDDYWGQGTQVTVSS	low polyreactivity
QVQLVESGGGLVQAGGSLRLSCAASGFTFNNYAMGWYRQAPGKERELVAAISSGAGTYYADSVKGRFTISRDNAKNTVYLQMNSLKPEDTAVYYCNASLKYQGRTRITYRDDYWGQGTQVTVSS	low polyreactivity
QVQLVESGGGLVQAGGSLRLSCAPSGFIFVSNAMVWYRQEPGKERELFADITSRGDSTYYADSVKGRFTISRDNAKNTVYLQMNSLKPEDTAVYYCAVDQLYFPWSFSWYGYWGQGTQVTVSS	low polyreactivity
QVQLVESGGGLVQAGGSLRLSCAASGRTFYRNAMGWYRQAPGKERELVATITRGGSTNYADSVKGRFTISRDNAKNTVYLQMNSLKPEDTAVYYCAAAQPGTNAYRVGSWGQGTQVTVSS	high polyreactivity
